The following molecules are listed with their measured logP values.
Test: physchem
Conditions: octanol/water

Molecule | logP
C[N+](C)(C)CCI | -3
CF [FLUOROMETHANE] | 0.51
CC(C)N [ISOPROPYLAMINE] | 0.26
C=CC#N [ACRYLONITRILE] | -0.92
Nc1cccc(Cl)c1 [3-CHLOROANILINE] | 1.88
OCC(F)(F)F [TRIFLUOROETHANOL] | 0.41
CCCCCF | 2.33
O=CO [FORMIC ACID] | -0.54
FC(F)Cl | 1.08
CBr [BROMOMETHANE] | 1.19
CN(N=O)C(N)=O [N-METHYL-N-NITROSUREA] | -0.16
ClC=C(Cl)Cl [TRICHLOROETHYLENE] | 2.29
CC(F)F | 0.75
CN [METHYLAMINE] | -0.57
CC(C)N(N=O)C(C)C | 1.63
CI [IODOMETHANE] | 1.51
COC [METHOXYMETHANE] | 0.1
ClCCl [METHYLENE CHLORIDE] | 1.25
O=Nc1ccccc1 [NITROSOBENZENE] | 2.01
C1=CCOC1 | 0.46
Oc1cccc(I)c1 | 3
C=C | 1.13
NC(=O)C(Cl)(Cl)Cl | 1.04
CCOCCO [2-ETHOXYETHANOL] | -0.54
CC(O)CN (stereo not drawn) | -0.96
CN(C)N=O [N-NITROSODIMETHYLAMINE] | -0.57
CCOCC [ETHER] | 0.77
CCOC(C)=O [ETHYL ACETATE] | 0.7
FCF | 0.2
FC(F)(F)C(F)(F)F | 2
C[S+]([O-])c1ccccc1 (stereo not drawn) [METHYLPHENYLSULFOXIDE] | 0.55
Cc1cccc([N+](C)(C)C)c1 | -2.31
CS(=O)(=O)c1ccccc1 [METHYLPHENYLSULFONE] | 0.48
N=C=N [CARBIMIDE] | -0.5
COC(C)=O [ACETIC ACID METHYL ESTER] | 0.18
CCSCC [DIETHYL SULFIDE] | 1.95
Clc1ccccc1 [CHLOROBENZENE] | 2.46
OCC(Cl)Cl | 0.37

---

Target: Dihydrofolate reductase type 1 (Escherichia coli) (UniProt P00382)
Sequence (P00382 whole entry): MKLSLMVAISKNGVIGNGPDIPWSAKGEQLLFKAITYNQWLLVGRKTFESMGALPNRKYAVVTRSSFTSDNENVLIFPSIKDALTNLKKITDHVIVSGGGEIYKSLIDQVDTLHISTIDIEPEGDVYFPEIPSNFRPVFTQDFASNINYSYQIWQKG
Assay: Inhibition of dihydrofolate reductase (DHFR) from Escherichia coli.
The following molecules are listed with their measured Log 1/C values.

Record smiles | Target desc | Log 1/C
CC1(C)N=C(N)N=C(N)N1c1ccc(C#N)cc1 | Dihydrofolate reductase type 1 (Escherichia coli) (UniProt P00382) | 4.04
CC1(C)N=C(N)N=C(N)N1c1cccc(C(=O)O)c1 | Dihydrofolate reductase type 1 (Escherichia coli) (UniProt P00382) | 3.89
COc1cccc(N2C(N)=NC(N)=NC2(C)C)c1 | Dihydrofolate reductase type 1 (Escherichia coli) (UniProt P00382) | 5.41
CC1(C)N=C(N)N=C(N)N1c1ccccc1 | Dihydrofolate reductase type 1 (Escherichia coli) (UniProt P00382) | 5.52
CCOC(=O)c1ccc(N2C(N)=NC(N)=NC2(C)C)cc1 | Dihydrofolate reductase type 1 (Escherichia coli) (UniProt P00382) | 4.42
CC1(C)N=C(N)N=C(N)N1c1ccc(Cl)c(Cl)c1 | Dihydrofolate reductase type 1 (Escherichia coli) (UniProt P00382) | 6.8
CC1(C)N=C(N)N=C(N)N1c1cccc(Cc2ccccc2)c1 | Dihydrofolate reductase type 1 (Escherichia coli) (UniProt P00382) | 6.55
CC1(C)N=C(N)N=C(N)N1Cc1ccccc1 | Dihydrofolate reductase type 1 (Escherichia coli) (UniProt P00382) | 4.47
CC1(C)N=C(N)N=C(N)N1c1cccc([N+](=O)[O-])c1 | Dihydrofolate reductase type 1 (Escherichia coli) (UniProt P00382) | 5.51
CC1(C)N=C(N)N=C(N)N1c1ccc(-c2ccccc2)cc1 | Dihydrofolate reductase type 1 (Escherichia coli) (UniProt P00382) | 5.24
CC(=O)Nc1ccc(Cc2cnc(N)nc2N)cc1[N+](=O)[O-] | Dihydrofolate reductase type 1 (Escherichia coli) (UniProt P00382) | 6.97
Nc1ncc(Cc2ccc([N+](=O)[O-])cc2)c(N)n1 | Dihydrofolate reductase type 1 (Escherichia coli) (UniProt P00382) | 6.2

---

Target: Dihydrofolate reductase type 1 (Escherichia coli)
Assay: Inhibition of dihydrofolate reductase (DHFR) from Escherichia coli.

Record smiles | Log 1/C
CC1(C)N=C(N)N=C(N)N1c1ccc(Cl)cc1 | 6.4
CC1(C)N=C(N)N=C(N)N1c1ccc(C(=O)O)cc1 | 2.72
CN1C(N)=NC(N)=NC1(C)C | 4.32
CCCN1C(N)=NC(N)=NC1(C)C | 5.33
CC1(C)N=C(N)N=C(N)N1CCCc1ccccc1 | 7.2
CS(=O)(=O)Oc1cccc(Cc2cnc(N)nc2N)c1 | 6.92
CC1(C)N=C(N)N=C(N)N1c1cccc(C(F)(F)F)c1 | 5.64
CC1(C)N=C(N)N=C(N)N1c1cccc(Cl)c1 | 6.22
COc1ccc(Cc2cnc(N)nc2N)cc1C(F)(F)F | 7.69
CC1(C)N=C(N)N=C(N)N1CCc1ccccc1 | 5.42
Nc1ncc(Cc2ccc(OC(F)(F)F)cc2)c(N)n1 | 6.57

---

Test: physchem
Settings: octanol/water
// NB: equality with 2 counts as 0; only logP strictly below is 1

Compound | Class name
CC[N+](=O)[O-] | 1
ClC(Cl)=C(Cl)Cl | 0
NC(=O)C(F)(F)F [TRIFLUOROACETAMIDE] | 1
NC(=O)CBr | 1
COc1ccccc1 | 0
Sc1ccccc1 | 0
O=NN(CCF)C(=O)NCCCl | 1
CC#CC | 1
CCNC(N)=S | 1
FC(F)(Cl)C(F)(F)Cl | 0
O=[N+]([O-])c1cccc(I)c1 | 0
O=Nc1ccc(O)c(C(=O)O)c1 | 0
C=C(F)F | 1
C=COCC | 1
CCN | 1
C#CC | 1
Brc1ccccn1 | 1
O=C(O)CS | 1
CNC(C)=O | 1
C=CCC | 0
CCCl [ETHYL CHLORIDE] | 1
Brc1ccncc1 | 1
CC(Cl)(Cl)Cl | 0
OCC(Cl)(Cl)Cl | 1
O=[N+]([O-])CCO | 1
CC#N | 1
FC(Cl)Cl | 1
C#C | 1
CO | 1
C=CC | 1
NC(N)=O | 1
C=C=C | 1
CSc1ccccc1 | 0
O=C(O)CBr | 1
O=c1[nH]cc(I)c(=O)[nH]1 | 1

Values from ChEMBL document CHEMBL1123071
